# System: johnsongrass
# PROTOCOL DESCRIPTION: Test C pre-/postemergence herbicide test
# Format: in vivo, Sorghum halepense
# CONDITION LABEL: Preemergence, 31 g ai/ha; scale 0 to 100, 0 is no effect and 100 is complete control
MEASURED QUANTITY: Johnsongrass plant response rating
Please respond with just the number, no unit label.

Worked cases, Johnsongrass plant response rating given:
| MOLECULE | Johnsongrass plant response rating |
| --- | --- |
| O=C1NCC(c2ccc(C(F)(F)F)cc2)C1C(=O)Nc1cccc(F)c1F (stereo not drawn) [Compound 80] | 0 |
| O=C1NCC(c2ccc(C(F)(F)F)cc2)C1C(=O)Nc1cccc(F)c1F (racemic) [Compound 202] | 10 |
| CN1CC(c2ccc(F)c(F)c2)C(C(=O)Nc2cccc(F)c2F)C1=O (stereo not drawn) | 0 |
| CN1CC(c2ccc(C(F)(F)F)cc2)C(C(=O)Nc2cccc(F)c2F)C1=O (stereo not drawn) | 35 |
| O=C1NC[C@H](c2cccc(C(F)(F)F)c2)[C@H]1C(=O)Nc1cccc(F)c1F | 25 |
| O=C1NCC(c2ccc(F)c(F)c2)C1C(=O)Nc1cccc(F)c1F (racemic) | 0 |
| O=C1NCC(c2ccc(F)cc2)C1C(=O)Nc1ccc(F)c(F)c1F (racemic) | 0 |
| CC(C)c1cccc(C2CNC(=O)C2C(=O)Nc2cccc(F)c2F)c1 (stereo not drawn) | 40 |

Shift focus to the following entry.
Returns the measured Johnsongrass plant response rating for the input molecule. Input: O=C1NCC(c2ccc(F)c(C(F)(F)F)c2)C1C(=O)Nc1cccc(F)c1F (racemic)
20

====

# System: pigweed
# PROTOCOL DESCRIPTION: Test A pre-/postemergence herbicide test
# Assay type: in vivo, Amaranthus retroflexus
# CONDITION LABEL: Preemergence, 125 g ai/ha; 0 to 100 scale where 0 is no effect and 100 is complete control
MEASURED QUANTITY: Plant response rating, Pigweed

Below: 2 compounds and their reported Plant response rating, Pigweed.
| COMPOUND | MEASURED QUANTITY | READOUT VALUE |
| --- | --- | --- |
| CC(C)c1cccc(C2CNC(=O)C2C(=O)Nc2cccc(F)c2F)c1 (stereo not drawn) [Compound 319] | Plant response rating, Pigweed | 0 |
| O=C1NCC(c2ccc(Cl)c(Cl)c2)C1C(=O)Nc1ccc(F)cc1F (racemic) [Compound 272] | Plant response rating, Pigweed | 0 |

Record request: Plant response rating, Pigweed value, item O=C1NCC(c2ccc(Cl)c(C(F)(F)F)c2)C1C(=O)Nc1ccccc1F (racemic) [Compound 267]
0

And for CN1CC(c2ccc(C(F)(F)F)cc2)C(C(=O)Nc2cccc(F)c2F)C1=O (stereo not drawn) [Compound 306] ?
80

And the next one, O=C1NCC(c2ccc(OC(F)F)cc2)C1C(=O)Nc1cccc(F)c1F (racemic) [Compound 350] ?
50

Next entry: CCN1CC(c2ccc(C(F)(F)F)cc2)C(C(=O)Nc2cccc(F)c2F)C1=O (stereo not drawn) [Compound 336]
0

Now this one: O=C1NCC(c2ccc(Cl)s2)C1C(=O)Nc1ccccc1F (stereo not drawn) [Compound 292]
0

Also CN1CC(c2ccc(F)cc2)C(C(=O)Nc2ccccc2F)C1=O (stereo not drawn) [Compound 270] , if possible.
0

Now consider CCN1CC(c2ccc(C(F)(F)F)cc2)C(C(=O)Nc2ccccc2F)C1=O (stereo not drawn) [Compound 335] and answer again.
0

====

# Tested on: morningglory
# PROTOCOL DESCRIPTION: Test C pre-/postemergence herbicide test
# Type: in vivo, Ipomoea coccinea
# CONDITION LABEL: Postemergence; 125 g ai/ha; scale 0 to 100 (0 no effect, 100 complete control)
MEASURED QUANTITY: Plant response rating, Morningglory
# respond with the number and nothing more

| MOLECULE | Plant response rating, Morningglory |
| --- | --- |
| O=C1NCC(c2ccc(F)c(Cl)c2)C1C(=O)Nc1ccccc1F (stereo not drawn) | 10 |
| O=C1NCC(c2ccc(C(F)(F)F)cc2)C1C(=O)Nc1ccccc1F (stereo not drawn) | 5 |
| O=C1NCC(c2ccc(C(F)(F)F)cc2)C1C(=O)Nc1cccc(F)c1F (racemic) | 70 |
| O=C1NCC(c2ccc(F)cc2)C1C(=O)Nc1ccc(F)c(F)c1F (racemic) | 0 |

I'd like to know its Plant response rating, Morningglory. The molecule in question is O=C1NCC(c2cc(F)c(F)c(F)c2)C1C(=O)Nc1cccc(F)c1F (stereo not drawn)
10

Subsequent entry: CN1CC(c2ccc(F)c(F)c2)C(C(=O)Nc2cccc(F)c2F)C1=O (stereo not drawn)
0

====

# System: ragweed
# PROTOCOL DESCRIPTION: Test C pre-/postemergence herbicide test
# Type: in vivo, Ambrosia elatior
# CONDITION LABEL: Postemergence; 125 g ai/ha; scale 0 to 100 (0 no effect, 100 complete control)
Labelling: Plant response rating, Ragweed reported below 40 becomes T; at or above becomes F.

Solved cases (3 shown):
| COMPOUND | CLASS ASSIGNMENT |
| --- | --- |
| O=C1NCC(c2ccc(C(F)(F)F)cc2)C1C(=O)Nc1cccc(F)c1F (racemic) | F |
| O=C1NCC(c2ccc(F)c(F)c2)C1C(=O)Nc1cccc(F)c1F (racemic) [Compound 101] | T |
| O=C1NCC(c2cc(F)c(F)c(F)c2)C1C(=O)Nc1cccc(F)c1F (centres unmarked) | T |

Is Plant response rating, Ragweed strictly under 40 for the entry O=C1NCC(c2ccc(Cl)c(F)c2)C1C(=O)Nc1cccc(F)c1F (centres unmarked) ?
F

Queued: CN1CC(c2ccc(C(F)(F)F)cc2)C(C(=O)Nc2cccc(F)c2F)C1=O (centres unmarked)
F

One more compound: O=C1NCC(c2ccc(F)c(F)c2)C1C(=O)Nc1cccc(F)c1F (centres unmarked) [Compound 17]
T

Try this compound next: O=C1NC[C@H](c2cccc(C(F)(F)F)c2)[C@H]1C(=O)Nc1ccccc1F
T

Try this compound too: Cc1c(F)cccc1NC(=O)C1C(=O)NCC1c1ccc(F)c(F)c1 (racemic)
T

Another compound: O=C1NC[C@H](c2cccc(C(F)(F)F)c2)[C@H]1C(=O)Nc1cccc(F)c1F
T

====

# Tested on: buckwheat, wild
# PROTOCOL DESCRIPTION: Test D pre-/postemergence herbicide test
# Type: in vivo, Polygonum convolvulus
# CONDITION LABEL: Preemergence; 250 g ai/ha; Buckwheat, Wild; scale 0 to 100
MEASURED QUANTITY: Plant response rating
Hey, just send me the number, nothing else.

Name the reported Plant response rating value associated with the compound O=C1NCC(c2ccc(Cl)c(F)c2)C1C(=O)Nc1cccc(F)c1F (stereo not shown)
10

Queued: O=C1NCC(c2ccc(F)c(F)c2)C1C(=O)Nc1ccccc1C(F)(F)F (racemic)
0

Likewise for O=C1NCC(c2ccc(F)c(C(F)(F)F)c2)C1C(=O)Nc1cccc(F)c1F (racemic) ?
55

Try O=C1NCC(c2ccc(C(F)(F)F)cc2)C1C(=O)Nc1ccccc1F (stereo not shown) next.
10

====

// values below are reported Morningglory plant response rating
# Test system: morningglory
# PROTOCOL DESCRIPTION: Test C pre-/postemergence herbicide test
# Assay type: in vivo, Ipomoea coccinea
# CONDITION LABEL: Preemergence, 31 g ai/ha; scale 0 to 100, 0 is no effect and 100 is complete control
# Text: […]
Please give only the number in your answer, with no unit.

Would you kindly share the measured Morningglory plant response rating for O=C1NCC(c2cc(F)cc(F)c2)C1C(=O)Nc1ccccc1Cl (racemic) ?
10

Request: O=C1NCC(c2ccc(C(F)(F)F)cc2)C1C(=O)Nc1cccc(F)c1F (racemic)
15

Please answer likewise for O=C1NC[C@H](c2cccc(C(F)(F)F)c2)[C@H]1C(=O)Nc1ccccc1F
0

Lookup O=C1NCC(c2ccc(F)c(C(F)(F)F)c2)C1C(=O)Nc1cccc(F)c1F (racemic)
0

# repeat for O=C1NC[C@H](c2cccc(C(F)(F)F)c2)[C@H]1C(=O)Nc1cccc(F)c1F
0

Could you do the same for O=C1NCC(c2cccc(OC(F)F)c2)C1C(=O)Nc1cccc(F)c1F (stereo not shown) , please?
5

Also O=C1NCC(c2ccc(C(F)(F)F)cc2)C1C(=O)Nc1ccccc1F (stereo not shown) , if possible.
0

====

# System: lambsquarters
# PROTOCOL DESCRIPTION: Test C pre-/postemergence herbicide test
# Assay type: in vivo, Chenopodium album
# CONDITION LABEL: Preemergence, 31 g ai/ha; scale 0 to 100, 0 is no effect and 100 is complete control
MEASURED QUANTITY: Lambsquarters plant response rating
Give your answer as a number; write no unit.

| COMPOUND | SYSTEM | Lambsquarters plant response rating |
| --- | --- | --- |
| O=C1NCC(c2cccc(OC(F)F)c2)C1C(=O)Nc1ccccc1F (stereo not shown) | lambsquarters | 40 |
| Cc1ccccc1NC(=O)C1C(=O)NCC1c1cccc(C(F)(F)F)c1 (racemic) | lambsquarters | 0 |
| O=C1NCC(c2cccc(C(F)(F)F)c2)C1C(=O)Nc1ccc(F)c(F)c1F (stereo not shown) | lambsquarters | 100 |
| O=C1NCC(c2cccc(OC(F)F)c2)C1C(=O)Nc1cccc(F)c1F (stereo not shown) | lambsquarters | 55 |

Suppose we examine the compound O=C1NC[C@H](c2cccc(C(F)(F)F)c2)[C@H]1C(=O)Nc1ccccc1F ; what Lambsquarters plant response rating value has been reported?
100

// query: O=C1NCC(c2ccc(F)c(C(F)(F)F)c2)C1C(=O)Nc1cccc(F)c1F (racemic)
75

Moving on to the next compound: O=C1NCC(c2ccc(C(F)(F)F)cc2)C1C(=O)Nc1cccc(F)c1F (stereo not shown)
40
